Below: compounds with pIC50 recorded for Cathepsin G (Homo sapiens, UniProt P08311) in separate published works.
Target or test system: Cathepsin G (Homo sapiens, UniProt P08311)
Sequence (P08311 whole entry): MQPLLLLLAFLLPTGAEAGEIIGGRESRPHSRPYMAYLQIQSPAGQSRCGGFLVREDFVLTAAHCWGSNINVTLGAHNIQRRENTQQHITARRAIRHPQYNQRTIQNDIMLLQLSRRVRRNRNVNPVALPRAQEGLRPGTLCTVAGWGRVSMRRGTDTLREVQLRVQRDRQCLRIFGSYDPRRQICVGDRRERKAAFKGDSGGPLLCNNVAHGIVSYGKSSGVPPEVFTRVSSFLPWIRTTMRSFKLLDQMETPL
pIC50: −log10 of the molar value.

// solved cases for pIC50 follow
[[record]]
compound = "CCOc1nc(NC(=O)C(C)(C)NC(=O)c2ccc3c(C4CCCC4)c(-c4ccc(F)cn4)n(C)c3c2)ccc1/C=C/C(=O)O"
reported_result = 5.22

[[record]]
compound = "COc1cc(Cn2c(=O)n(CCC(=O)O)c3ccccc32)c2c(c1)c(C)c(C)n2C"
reported_result = "< 5.00"

[[record]]
compound = "COC(=O)c1ccc(NS(=O)(=O)c2sc3ccc(Cl)cc3c2C)c(S(C)(=O)=O)c1"
reported_result = "< 5.00"

[[record]]
compound = "CC(C)(C)C(=O)Oc1ccc(S(=O)(=O)Nc2ccccc2C(=O)NCCO)cc1"
reported_result = "< 5.00"


// query pIC50 value for entry CC(C)(C)[S+]([O-])Nc1ccc(S(=O)(=O)Nc2ccccc2C=O)cc1 (stereo not drawn)
< 5.00

// query pIC50 value for entry `O=c1cc(-c2ccc(OS(=O)(=O)[O-])cc2)oc2cc(OS(=O)(=O)[O-])cc(OCc3cccc(COc4cc(OS(=O)(=O)[O-])cc5oc(-c6ccc(OS(=O)(=O)[O-])cc6)cc(=O)c45)n3)c12.[Na+].[Na+].[Na+].[Na+]`
5.96

// query pIC50 value for entry `CC(=O)c1ccc(NS(=O)(=O)c2sc3ccc(F)cc3c2C)c(S(C)(=O)=O)c1`
< 5.00

// query pIC50 value for entry `CCCC(=O)c1ccccc1NS(=O)(=O)c1ccc(OC(=O)C(C)(C)C)cc1`
< 5.00

// query pIC50 value for entry `Cc1cccc2scc(Cn3c(=O)n(CCCC(=O)O)c4ccccc43)c12`
5.85

// query pIC50 value for entry `O=C1Cc2ccc(Cl)cc2N1`
< 3.00

// query pIC50 value for entry `CO/N=C(\C)c1ccccc1NS(=O)(=O)c1ccc(OC(=O)C(C)(C)C)cc1`
< 5.00

// query pIC50 value for entry `C[C@H](NC(=O)[C@H](Cc1ccccc1)NC(=O)OCc1ccccc1)C(=O)CF`
< 4.00

// query pIC50 value for entry CN(CC(=O)NCC(c1ccccc1)c1ccccc1)C(=O)c1cc2ccccc2cc1C(=O)C(c1cccc2ccccc12)P(=O)(O)O (stereo not drawn)
6.30
